Hello, the source for this data is ChEMBL document CHEMBL2375320, in case you need it.

- Test system: Candida albicans
- assay: Antifungal activity against Candida albicans ATCC 10231 assessed as growth inhibition at 1000 ug/mL after 72 hrs by disk diffusion method
- Assay type: functional
Activity calls are given as the source filed them. No cut-off for these calls is given here.
observation.type: inhibition zone (IZ)

Example molecules with recorded inhibition zone (IZ):
| test.smiles | observation.type | readout.value |
| --- | --- | --- |
| N#Cc1c(F)c(C#N)c(Sc2ccccc2)c(Cl)c1Sc1ccccc1 | inhibition zone (IZ) | inactive |
| N#Cc1c(F)c(Cl)c(F)c(C#N)c1F | inhibition zone (IZ) | inactive |
| N#Cc1c(F)c(Cl)c(Nc2ccc(Cl)cc2)c(C#N)c1F | inhibition zone (IZ) | inactive |
| CCCSc1c(Cl)c(SCCC)c(C#N)c(F)c1C#N | inhibition zone (IZ) | inactive |
| N#Cc1c(Sc2ccccc2)c(F)c(Sc2ccccc2)c(C#N)c1Sc1ccccc1 | inhibition zone (IZ) | inactive |

Enquiry: Which measured inhibition zone (IZ) value corresponds to `N#Cc1c(F)c(F)c(F)c(C#N)c1F` ?
Return: inactive

Enquiry: Requested read-out: inhibition zone (IZ). Entry: `N#Cc1c(N)c(Cl)c(Cl)c(C#N)c1Cl`
Return: inactive

Enquiry: Which inhibition zone (IZ) value is on record for `COc1ccc(Nc2c(Cl)c(F)c(C#N)c(F)c2C#N)cc1` ?
Return: inactive

Enquiry: Looking for the measured inhibition zone (IZ) of `N#Cc1c(Cl)c(Cl)c(NCc2ccccc2)c(C#N)c1Cl` , can you help?
Return: inactive

Enquiry: So what's the measured inhibition zone (IZ) for this one? `COc1ccc(Nc2c(Cl)c(Cl)c(C#N)c(Cl)c2C#N)cc1`
Return: inactive

Enquiry: Returns the measured inhibition zone (IZ) for the input molecule. Input: `COc1ccc(Nc2c(F)c(F)c(C#N)c(F)c2C#N)cc1`
Return: inactive
